- target.desc: human B7-H3 protein (human) (UniProt Q5ZPR3)
- method: Octet (BLI) epitope binning on captured human B7-H3; competitor 72D1D11
property.measured: inhibition ratio (%)
Numbers only, in %.

# example entries with known answers
binder: 97E6B2 (antibody, V domains shown) VH: QVQLQQPGAELVKPGASVKMSCKASGYTFTSYWITWVKQRPGQGLEWIGDIYPGSNNTYYNEKFKSKATLTVDTSSSTAYIQLSSLTSEDSAVYYCARLIMSLFDYSGQGTTLTVSS VL: ENVLTQSPANMSASPGEKVTMTCSVSSSVSYIHWYQQKSSTSPTLWIYDTSKLASGVPGRFSGSGSGNSYALTISSMEAEDVATYYCFQGSAYPLTFGAGTKLELK
inhibition ratio [%]: 99.7
--
binder: AHP06358 (antibody, V domains shown) VH: EVQLVQSGAEVKKPGASVKVSCKASGYTFTSYGISWVRQAPGQGLEWMGWISAYNGNTNYAQKLQGRVTMTTDTSTSTAYMELRSLRSDDTAVYYCARDSPLQIAVAGYYYGMDVWGQGTTVTVSS VL: NFMLTQPHSVSESPGKTVTISCTRSSGSIVSGYVQWYQQRPGSAPSTVIYEHNQRPSGVPDRFSGSIDSSSNSASLTISGLRTEDEADYYCQSYDSRNMIFGGGTKLTVL
inhibition ratio [%]: -13.9

// next item, inhibition ratio requested
QUERY: Output inhibition ratio of 126C10B10 (antibody, V domains shown) VH: GVQLQQSGAELVKPGASVKLSCTGSGFNIKDPYIHWVKQRPEQGLEWIGRIDPANGNTKYGPRFQGRATMTADTSSNTANLQLSSLTSEDTAVYYCTTWNYYLSRGFDYWGQGTTLTVSS VL: QIVLTQSPAIMSASPGEKVTMTCSARSSVTYMHWYQQKSGTSPKRWIYDTSKLASGVPARFSGSGSGTSYSLTISSMEAEDAATYYCQQWTSNPLTFGAGTKLELK
RESULT: 96.6
